- measurement_protocol: Drug excretion in morbidly obese adult human urine assessed as unchanged drug at 4 mg/kg, iv administered as single dose 30 mins infusion
- Format: ADME, organism-based
- Parameters: dose 4 mg/kg, route intravenous
- test_settings: read-out: Drug uptake
recorded_endpoint: dose excreted at 0.5 h (%)
Numbers only, in %.

Q: What value of measured dose excreted at 0.5 h is listed for CCCCCCCCCC(=O)N[C@@H](Cc1c[nH]c2ccccc12)C(=O)N[C@H](CC(N)=O)C(=O)N[C@@H](CC(=O)O)C(=O)N[C@@H]1C(=O)NCC(=O)N[C@@H](CCCN)C(=O)N[C@@H](CC(=O)O)C(=O)N[C@H](C)C(=O)N[C@@H](CC(=O)O)C(=O)NCC(=O)N[C@H](CO)C(=O)N[C@@H]([C@H](C)CC(=O)O)C(=O)N[C@@H](CC(=O)c2ccccc2N)C(=O)O[C@@H]1C ?
Ans: 42.7
